- assayTarget: human P2X4 (Homo sapiens, UniProt Q99571)
- Sequence (Q99571 1-388): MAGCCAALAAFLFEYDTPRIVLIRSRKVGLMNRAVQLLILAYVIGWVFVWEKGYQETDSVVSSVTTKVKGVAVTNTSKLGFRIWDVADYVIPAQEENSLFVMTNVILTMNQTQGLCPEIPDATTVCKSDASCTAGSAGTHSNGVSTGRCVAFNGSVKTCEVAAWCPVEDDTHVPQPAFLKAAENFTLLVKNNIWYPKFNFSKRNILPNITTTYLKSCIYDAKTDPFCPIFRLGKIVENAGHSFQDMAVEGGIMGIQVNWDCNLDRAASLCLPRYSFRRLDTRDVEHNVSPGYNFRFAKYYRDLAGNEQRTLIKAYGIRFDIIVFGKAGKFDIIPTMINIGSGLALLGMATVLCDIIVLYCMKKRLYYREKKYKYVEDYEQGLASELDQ
- protocolSummary: Human P2X4 HEK Cell FLIPR Assay
- conditionParameters: HEK293 cells, agonist Bz-ATP at EC80; individual values listed where some fall outside detection range
readoutType: pIC50
To interpret pIC50, take it as minus log10 of a concentration measured in moles per litre.

1) NS(=O)(=O)c1cc(NC(=O)Cc2ccc(C(F)(F)F)cc2Cl)ccc1-n1cc(C(F)(F)F)nn1 = 6.70
2) NS(=O)(=O)c1cc(NC(=O)Cc2cccnc2Cl)ccc1-n1cc(Br)cn1 = 5.82
3) NS(=O)(=O)c1cc(NC(=O)Cc2cc(F)c(F)cc2Cl)ccc1-n1cc(Br)cn1 = 6.88

Query compound follows.
// query Please give the measured pIC50 for this compound: COCCn1cc(-c2ccc(NC(=O)Cc3c(F)cccc3Cl)cc2S(N)(=O)=O)cn1
// result 7.31

====

- assayTarget: human P2X4 (Homo sapiens, UniProt Q99571)
- Sequence (Q99571 1-388): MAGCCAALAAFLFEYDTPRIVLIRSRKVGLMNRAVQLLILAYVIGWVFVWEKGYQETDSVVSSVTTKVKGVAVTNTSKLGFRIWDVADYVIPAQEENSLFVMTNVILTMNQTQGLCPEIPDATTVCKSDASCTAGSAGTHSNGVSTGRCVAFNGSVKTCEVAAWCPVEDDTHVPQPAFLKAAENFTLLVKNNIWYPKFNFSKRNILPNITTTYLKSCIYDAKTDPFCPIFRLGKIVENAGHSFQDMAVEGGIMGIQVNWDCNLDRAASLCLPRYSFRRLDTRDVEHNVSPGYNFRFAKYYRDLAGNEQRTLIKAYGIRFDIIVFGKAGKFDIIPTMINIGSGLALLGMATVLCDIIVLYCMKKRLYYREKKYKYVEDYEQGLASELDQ
- protocolSummary: Human P2X4 HEK Cell FLIPR Assay
- conditionParameters: HEK293 cells, agonist Bz-ATP at EC80; individual values listed where some fall outside detection range
readoutType: pIC50
To interpret pIC50, take it as minus log10 of a concentration measured in moles per litre.

1) NS(=O)(=O)c1cc(NC(=O)Cc2ccc(C(F)F)cc2)ccc1-n1cnc(C(F)(F)F)n1 = 6.04
2) CC(C)c1ccccc1CC(=O)Nc1ccc(-n2cc(C(F)(F)F)cn2)c(S(N)(=O)=O)c1 = 5.93
3) Cc1cc(O)nn1-c1ccc(NC(=O)Cc2ccccc2Cl)cc1S(N)(=O)=O = 7.01
4) NS(=O)(=O)c1cc(NC(=O)C(O)c2ccccc2Cl)ccc1-c1cnn(C(F)F)c1 (stereo not drawn) = 5.52
5) NS(=O)(=O)c1cc(NC(=O)Cc2ccccc2Cl)ccc1-n1cc(C(F)(F)F)nn1 = 7.43

// query Observed pIC50 on human P2X4 (Homo sapiens, UniProt Q99571) for Cc1ccccc1CC(=O)Nc1ccc(-c2cnn(C(F)F)c2)c(S(N)(=O)=O)c1 , please.
// result 7.59

// query Try this compound too: CN(C(=O)Cc1ccccc1Cl)c1ccc(-n2cc(C(F)(F)F)cn2)c(S(N)(=O)=O)c1
// result 5.46

// query Try this compound too: NS(=O)(=O)c1cc(NC(=O)Cc2ccccc2OC(F)F)ccc1-n1cc(F)cn1
// result 6.82

// query Try this compound too: CC(C)(C)c1ncn(-c2ccc(NC(=O)Cc3ccccc3Cl)cc2S(N)(=O)=O)n1
// result 5.93

// query Try this compound too: NS(=O)(=O)c1cc(NC(=O)Cc2ccccc2Cl)ccc1-n1ncc2ccccc21
// result 7.14

Taken from patent US11524938B2.
